B1: Myoblast determination protein 1 (Mus musculus), P10085 (parent)
chain: MELLSPPLRDIDLTGPDGSLCSFETADDFYDDPCFDSPDLRFFEDLDPRLVHMGALLKPEEHAHFPTAVHPGPGAREDEHVRAPSGHHQAGRCLLWACKACKRKTTNADRRKAATMRERRRLSKVNEAFETLKRCTSSNPNQRLPKVEILRNAIRYIEGLQALLRDQDAAPPGAAAFYAPGPLPPGRGSEHYSGDSDASSPRSNCSDGMMDYSGPPSGPRRQNGYDTAYYSEAARESRPGKSAAVSSLDCLSSIVERISTDSPAAPALLLADAPPESPPGPPEGASLSDTEQGTQTPSPDAAPQCPAGSNPNAIYQVL
partner: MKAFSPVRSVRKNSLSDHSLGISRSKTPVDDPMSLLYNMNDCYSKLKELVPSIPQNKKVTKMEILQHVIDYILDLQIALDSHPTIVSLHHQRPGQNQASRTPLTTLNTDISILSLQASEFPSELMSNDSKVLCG

# Variants of: B1
# TEST CONTEXT: with id2_mouse Id2, P41136
MEASURED PROPERTY: effect of a mutation on the interaction

Below, 4 variants whose answers are already recorded.
{"columns": ["MUTATION NOTATION", "effect of a mutation on the interaction"],
 "data": [
  ["L150K", "decreasing interaction"],
  ["L160K", "decreasing interaction"],
  ["I157K", "disrupting interaction"],
  ["I149K", "disrupting interaction"]
]}

Now examine the next entry.
Reported effect of a mutation on the interaction for Q161K : what is it?
decreasing interaction

These measurements were taken from IntAct's records for PubMed 21209940.
